Target: recombinant human SOS1 polypeptide (amino acids 560-1049) (Homo sapiens (Human))
Sequence (Q07889 560-1049): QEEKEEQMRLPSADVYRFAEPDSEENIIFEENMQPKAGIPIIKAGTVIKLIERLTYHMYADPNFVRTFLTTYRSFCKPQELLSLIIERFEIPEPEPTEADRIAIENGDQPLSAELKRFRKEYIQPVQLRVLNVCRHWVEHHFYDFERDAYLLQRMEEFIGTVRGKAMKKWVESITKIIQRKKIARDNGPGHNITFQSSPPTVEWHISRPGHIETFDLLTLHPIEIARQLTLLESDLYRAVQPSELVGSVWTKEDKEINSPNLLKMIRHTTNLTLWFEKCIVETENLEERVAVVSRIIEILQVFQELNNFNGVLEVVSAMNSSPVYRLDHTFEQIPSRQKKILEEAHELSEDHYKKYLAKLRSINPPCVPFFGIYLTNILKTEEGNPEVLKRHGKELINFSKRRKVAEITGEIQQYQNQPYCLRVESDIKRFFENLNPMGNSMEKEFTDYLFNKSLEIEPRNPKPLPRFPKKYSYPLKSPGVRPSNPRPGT
Experiment: biochemical
Assay type: binding
Details: HTRF displacement, Cy5 labelled tracer, Morrison equation for competitive binding; read-out: Ki, Inhibition of Labeled Tracer Binding to SOS1
pKi: −log10 of the molar value.
Please note: True applies when pKi is 9 or greater, and False applies otherwise.

>  <compound>
Cc1c(C#N)cc(F)cc1[C@@H](C)Nc1nnc(C)c2cnc(N3CC4CC(C3)O4)cc12 [Example 12-106]

>  <category>
False

$$$$
>  <compound>
Cc1c([C@@H](C)Nc2nnc(C)c3cnc(N4CCC(N(C)C)CC4)cc23)cccc1C(F)(F)F [Example 12-15]

>  <category>
True

$$$$
>  <compound>
Cc1c(C#N)cccc1[C@@H](C)Nc1nnc(C)c2ccc(N3CCC(F)(F)CC3)cc12 [Example 10-67]

>  <category>
False

$$$$
>  <compound>
Cc1nnc(N[C@H](C)c2cccc(F)c2Cl)c2cc(N3CC(C)(O)C3)ncc12 [Example 12-80]

>  <category>
False

$$$$
>  <compound>
Cc1cccc([C@@H](C)Nc2nnc(C)c3cnc(N4CC(C)(O)C4)cc23)c1F [Example 12-132]

>  <category>
False

$$$$
>  <compound>
Cc1nnc(N[C@H](C)c2cccc(C#N)c2C(F)(F)F)c2cc(N3C[C@H]4C[C@@H]3CO4)ncc12 [Example 12-127]

>  <category>
False

$$$$
>  <compound>
Cc1nnc(N[C@H](C)c2cccc(F)c2F)c2cc(N3CC(C)(O)C3)ncc12 [Example 12-56]

>  <category>
False

$$$$
>  <compound>
Cc1c([C@@H](C)Nc2nncc3ccc(N4CC5(CC(N(C)C)C5)C4)cc23)cccc1C(F)(F)F [Example 1-32]

>  <category>
True

$$$$
>  <compound>
Cc1c(C#N)cccc1[C@@H](C)Nc1nnc(C)c2cnc(N3CC4(CCN(CC(F)(F)F)C4)C3)cc12 [Example 12-78]

>  <category>
False

$$$$
>  <compound>
Cc1c([C@@H](C)Nc2nnc(C)c3cnc(N4C[C@H]5C[C@@H]4CO5)cc23)cccc1C(F)(F)F [Example 12-9]

>  <category>
True

$$$$
>  <compound>
Cc1nnc(N[C@H](C)c2cccc(C(F)(F)F)c2F)c2cc(N3CC(N(C)C)C3)ccc12 [Example 10-76]

>  <category>
False

$$$$
>  <compound>
Cc1c(C#N)cccc1[C@@H](C)Nc1nnc(C)c2cnc(N3CC(C)(N(C)C)C3)cc12 [Example 12-43]

>  <category>
False

$$$$
>  <compound>
Cc1c([C@@H](C)Nc2nnc(C)c3ccc(N4CCC(N(C)C)CC4)cc23)cccc1C(F)(F)F [Example 10-8]

>  <category>
True

$$$$
>  <compound>
Cc1c([C@@H](C)Nc2nnc(C)c3ccc(O[C@H]4CCNC4)cc23)cccc1C(F)(F)F [Example 7-3]

>  <category>
True

$$$$
>  <compound>
Cc1c([C@@H](C)Nc2nncc3ccc(O[C@H]4C[C@H](N(C)C)C4)cc23)cccc1C(F)(F)F [Example 2-8]

>  <category>
False

$$$$
>  <compound>
Cc1c([C@@H](C)Nc2nnc(C)c3cnc(N4CCN(c5cnn(C)c5)CC4)cc23)cccc1C(F)(F)F [Example 12-1]

>  <category>
True

$$$$
>  <compound>
Cc1c(C#N)cccc1[C@@H](C)Nc1nnc(CN(C)C)c2cnc(N3C[C@H]4C[C@@H]3CO4)cc12 [Example 14-4]

>  <category>
False

$$$$
>  <compound>
Cc1c(C#N)cccc1[C@@H](C)Nc1nnc(C)c2cnc(N3CC(N(C)C)C3)cc12 [Example 12-54]

>  <category>
False

$$$$
>  <compound>
Cc1c([C@@H](C)Nc2nnc(C)c3cnc(N4CC(C)(N(C)C)C4)cc23)cc(F)cc1C(F)(F)F [Example 12-110]

>  <category>
False

$$$$
>  <compound>
Cc1c(C#N)cccc1[C@@H](C)Nc1nnc(C)c2cnc(N3C[C@H]4CC[C@@H]3CN4CCO)cc12 [Example 12-89]

>  <category>
True

$$$$
